molecular target: Steroidogenic factor 1 (Homo sapiens); assay: Inhibition of Gal4-fused human SF1 LBD (198 to 462 residues) expressed in CHO-K1 cells
Sequence (Q13285 whole entry, the tested form may be a part): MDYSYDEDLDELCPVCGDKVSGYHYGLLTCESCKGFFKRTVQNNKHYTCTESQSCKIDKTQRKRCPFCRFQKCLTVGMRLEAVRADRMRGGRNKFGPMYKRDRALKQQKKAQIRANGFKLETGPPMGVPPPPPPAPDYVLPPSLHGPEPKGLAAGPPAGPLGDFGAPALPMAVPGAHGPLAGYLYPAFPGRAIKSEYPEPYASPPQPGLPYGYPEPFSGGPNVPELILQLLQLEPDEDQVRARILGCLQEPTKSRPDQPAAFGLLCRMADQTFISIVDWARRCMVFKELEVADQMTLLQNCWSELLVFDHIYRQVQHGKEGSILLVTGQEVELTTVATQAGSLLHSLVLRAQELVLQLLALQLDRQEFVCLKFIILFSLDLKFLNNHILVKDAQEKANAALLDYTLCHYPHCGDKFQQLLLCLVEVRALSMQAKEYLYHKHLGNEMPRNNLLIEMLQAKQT

| molecule | IC50 [nM] |
| --- | --- |
| CCOC(=O)C(C)Oc1cccc2c(=O)n(CC(=O)Nc3ccc4c(c3)OCCO4)ccc12 (stereo unspecified) | 30 |
